// provenance: patent US20130184222A1

- System under test: IDH1 R132H (Homo sapiens, UniProt O75874, R132H)
- Sequence (O75874 whole entry R132H): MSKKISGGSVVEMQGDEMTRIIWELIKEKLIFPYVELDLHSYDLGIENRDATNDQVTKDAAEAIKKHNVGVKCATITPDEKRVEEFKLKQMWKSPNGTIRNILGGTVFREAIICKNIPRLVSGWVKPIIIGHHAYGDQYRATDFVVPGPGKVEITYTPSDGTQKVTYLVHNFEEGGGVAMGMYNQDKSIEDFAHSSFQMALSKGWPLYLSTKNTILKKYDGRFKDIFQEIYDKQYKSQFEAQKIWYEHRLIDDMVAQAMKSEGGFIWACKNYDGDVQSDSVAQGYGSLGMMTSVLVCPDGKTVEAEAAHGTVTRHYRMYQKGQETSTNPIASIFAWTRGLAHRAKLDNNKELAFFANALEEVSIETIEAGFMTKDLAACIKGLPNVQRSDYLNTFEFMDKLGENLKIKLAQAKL
- Protocol text: In vitro assay for IDH1 R132H inhibitors (NADPH/aKG, resazurin detection)
- Assay type: biochemical
- Run conditions: Table 4B; 0.2 μg/ml IDH1 R132H, 50 minutes at room temperature; read-out: IC50, IDH1 R132H Inhibition
pIC50: −log10 of the molar value.
Measured pIC50, listed per entry.

Study these solved cases before continuing.
Molecule: Cc1ccccc1C(C(=O)NC1CCCCC1)N(C(=O)Cn1cc[nH]c1=O)c1cccc(F)c1 (stereo not shown) [Compound 319]
Reported measurement: 6.00 to 7.00
//
Molecule: Cc1ccccc1C(C(=O)NC1CCCCC1)N(C(=O)Cn1ccnc1C)c1cccc(N)c1 (stereo not shown) [Compound 226]
Reported measurement: 6.00 to 7.00
//
Molecule: COc1ccc(F)c(C(C(=O)NC2CCCCC2)N(C(=O)Cc2cccs2)c2cccc(F)c2)c1 (stereo not shown) [Compound 128]
Reported measurement: 6.00 to 7.00

Turning to the following molecule.
*Q* Give pIC50 for Cc1ccccc1C(C(=O)NC1CCCCC1)N(Cc1cccs1)C(=O)Cn1nnc2ccccc21 (stereo not shown) [Compound 157]
*A* 6.00 to 7.00

---

Readings of IC50 for the listed compounds
- System under test: IDH1 R132H (Homo sapiens, UniProt O75874, R132H)
- Protocol text: In vitro assay for IDH1 R132H inhibitors (NADPH/aKG, resazurin detection)
- Format: biochemical
- Run conditions: Table 4A; 0.2 μg/ml IDH1 R132H, 50 minutes at room temperature; read-out: IC50 (uM), IDH1 R132H Inhibition

Please review the following examples before continuing.
Compound: Cc1ccccc1C(C(=O)NC1CCCCC1)N(C(=O)Cc1cccs1)c1ccc(Br)c(Cl)c1 (centres unmarked)
System under test: IDH1 R132H (Homo sapiens, UniProt O75874, R132H)
IC50: 0.1 to 1 µM
--
Compound: CCc1ccccc1C(C(=O)NC1CCCCC1)N(C(=O)Cc1cccs1)c1cccc(F)c1 (centres unmarked)
System under test: IDH1 R132H (Homo sapiens, UniProt O75874, R132H)
IC50: 0.1 to 1 µM

*Q* Using IDH1 R132H (Homo sapiens, UniProt O75874, R132H) as the test system, report measured IC50 of O=C(NC1CCCCC1)C(c1ccc(Cl)cc1)N(C(=O)Cc1cccs1)c1cccc(F)c1 (centres unmarked) .
*A* 0.1 to 1 µM

*Q* Look up and report IC50, with IDH1 R132H (Homo sapiens, UniProt O75874, R132H) as system, for O=C(NC1CCCCC1)C(c1ccc(-n2ccnc2)cc1)N(C(=O)Cc1cccs1)c1cccc(F)c1 (centres unmarked)
*A* 10 to 100 µM

*Q* GET IC50 where system = IDH1 R132H (Homo sapiens, UniProt O75874, R132H) and item = O=C(NC1CCCCC1)C(c1cccnc1)N(C(=O)Cc1cccs1)c1cccc(F)c1 (centres unmarked)
*A* 1 to 10 µM

---

- System under test: IDH1 R132H (Homo sapiens, UniProt O75874, R132H)
- Protocol text: In vitro assay for IDH1 R132H inhibitors (NADPH/aKG, resazurin detection)
- Type: biochemical
- Run conditions: Table 4A; 0.2 μg/ml IDH1 R132H, 50 minutes at room temperature; read-out: IC50 (uM), IDH1 R132H Inhibition
Measurement kind: IC50

These recorded examples may help you get a feel for the data.
Compound: O=C(NC1CCCCC1)C(c1ccccc1)N(C(=O)c1ccccn1)c1cccc(F)c1 (centres unmarked) [Compound 55]
IC50: 1 to 10 µM
--
Compound: Cc1ccccc1C(C(=O)NC1CCCC1)N(C(=O)CCl)c1ccccc1F (centres unmarked) [Compound 75]
IC50: 1 to 10 µM
--
Compound: O=C(NC1CCCCC1)C(c1ccccc1F)N(C(=O)CNS(=O)(=O)c1ccccc1)c1ccccc1F (centres unmarked) [Compound 10]
IC50: 0.1 to 1 µM
--
Compound: CC(C)(C(=O)NC1CCCC1)N(C(=O)Cc1cccs1)c1cccc(F)c1 [Compound 21]
IC50: ≥ 100 µM
--
Compound: CC(C)C(C(=O)NC1CCCC1)N(C(=O)Cc1cccs1)c1cccc(F)c1 (centres unmarked) [Compound 16]
IC50: ≥ 100 µM

*Q* Provide only the value of recorded IC50 for CC(C(=O)NCc1ccccc1)(c1cccc(F)c1)N(C(=O)Cc1cccs1)c1ccccc1 (centres unmarked) [Compound 12]
*A* 10 to 100 µM

*Q* Assign IC50 to the following record: O=C(NC1CCCC1)C(c1ccccc1F)N(C(=O)Cc1cccs1)c1ccccc1F (centres unmarked) [Compound 47]
*A* 0.1 to 1 µM
